We begin with IC50 values for Metabotropic glutamate receptor 2 (Homo sapiens, UniProt Q14416), as collected from the published literature.

molecule | target of assay | IC50, nM
C[C@@H]1Cn2c(-c3ccc(OCF)cc3)nc(-c3ccc(S(=O)(=O)NC4CC4)cc3)c2CCO1 | Metabotropic glutamate receptor 2 (Homo sapiens, UniProt Q14416) | 3.6
CC(C)n1cc(-c2cc3c(cc2-c2ccc(F)cc2F)C(=O)NC3)cn1 | Metabotropic glutamate receptor 2 (Homo sapiens, UniProt Q14416) | 1820
CCNS(=O)(=O)c1ccc(-c2nc(-c3ccc(F)cc3)n3c2CCO[C@H](C)C3)cc1 | Metabotropic glutamate receptor 2 (Homo sapiens, UniProt Q14416) | 4.1
COc1ccc(-c2cn3c(=O)[nH]nc3cc2OCc2csc(C)n2)c(F)c1 | Metabotropic glutamate receptor 2 (Homo sapiens, UniProt Q14416) | 54.2
CC(C)NS(=O)(=O)c1ccc(-c2nc(-c3ccc(OC4COC4)cc3)n3c2CCOC(C)C3)cc1 (centres unmarked) | Metabotropic glutamate receptor 2 (Homo sapiens, UniProt Q14416) | 7.1
CNS(=O)(=O)c1ccc(-c2nc(-c3ccc(OC(F)F)cc3)n3c2CCO[C@H](C)C3)cc1 | Metabotropic glutamate receptor 2 (Homo sapiens, UniProt Q14416) | 3.1
CCNS(=O)(=O)c1ccc(-c2nc(-c3ccc(OC(F)F)cc3)n3c2CCO[C@H](C)C3)cc1 | Metabotropic glutamate receptor 2 (Homo sapiens, UniProt Q14416) | 3.7
COc1ccc(-c2cc3c(cc2-c2cccc(C#N)c2)CNC3=O)cc1F | Metabotropic glutamate receptor 2 (Homo sapiens, UniProt Q14416) | 3550
